Collected growth values appear next to each entry.
Tested on: RPMI-8226 leukemia
assay.remarks: NCI-60 one-dose screen, 48 h (100 = growth as untreated, 0 = no growth, -100 = all killed)
conditions.used: 1 µM
The panel holds about 83,000 compounds, 20% with a hit somewhere; the sample as a whole holds those more often. Active and inactive are the calls of the source. The calls were made as follows: active = growth percent below 10; inactive = the rest.

Answered examples (3):
{"smiles.code": "CC/C(=C(\\c1ccc(O)cc1)c1ccc(OCCN(C)C(=O)COCCNC(=O)Cc2ccc3c(c2)CN([C@@H]2CCC(=O)NC2=O)C3=O)cc1)c1ccccc1", "growth": "83.7% (inactive)"}
{"smiles.code": "CC/C(=C(\\c1ccc(O)cc1)c1ccc(OCCN(C)C(=O)CCOCCNC(=O)c2ccc3c(c2)CN([C@@H]2CCC(=O)NC2=O)C3=O)cc1)c1ccccc1", "growth": "99.1% (inactive)"}
{"smiles.code": "CC/C(=C(/c1ccc(O)cc1)c1ccc(OCCN(C)C(=O)COCCOCCNC(=O)Cc2ccc3c(c2)CN([C@@H]2CCC(=O)NC2=O)C3=O)cc1)c1ccccc1", "growth": "90.3% (inactive)"}

Query CC/C(=C(/c1ccc(O)cc1)c1ccc(OCCN(C)C(=O)CCOCCNC(=O)Cc2ccc3c(c2)CN([C@@H]2CCC(=O)NC2=O)C3=O)cc1)c1ccccc1 on RPMI-8226 leukemia; growth returned: 88% (inactive)

# lookup: CC/C(=C(/c1ccc(O)cc1)c1ccc(OCCN(C)C(=O)COCCOCCNC(=O)c2ccc3c(c2)CN([C@@H]2CCC(=O)NC2=O)C3=O)cc1)c1ccccc1 on RPMI-8226 leukemia, growth = 99.6% (inactive)

Data provenance: PubChem BioAssay (NCI)
